FYI, the data here is from ChEMBL document CHEMBL5126609.

EXPERIMENT_NOTES: Oral bioavailability in rat
Format: ADME, organism-based
COND: in vivo
QUANTITY_NAME: bioavailability (%)
Give just the number in %; leave the unit off.

## Input Form field: reported bioavailability of Cc1nc(C)n(CC(=O)N2CCN(c3sc(C(F)(F)F)nc3-c3nc4ccc(-c5noc(C)n5)cc4[nH]3)C[C@H]2C)n1
## Output 48

----------
EXPERIMENT_NOTES: in vivo
COND: Balb/c, mouse, po, 10 mg/kg
Entries and their Tmax values follow.
Give just the number in min; leave the unit off.

Solved entries:
> print(dat)
                                item.smiles  assay.value
1  Cc1nc(C)n(CC(=O)N2CCN(c3sc(C(F)(F)F)nc3-c3nc4ccccc4[nH]3)C[C@H]2C)n1           30
2  Cc1nc(C)n(CC(=O)N2CCN(c3sc(C(F)(F)F)nc3-c3nc4ccc(N5CCOCC5)cc4[nH]3)C[C@H]2C)n1           15
3  C[C@@H]1CN(c2sc(C(F)(F)F)nc2-c2nc3cc(OCCO)ccc3[nH]2)CCN1C(=O)Cn1cnc2cccnc21           15

Consider the record given below.
## Input Form field: reported Tmax of Cc1nn(CC(=O)N2CCN(c3sc(C(F)(F)F)nc3-c3nc4ccccc4[nH]3)C[C@H]2C)cc1CN(C)C
## Output 120

----------
Entries and their fraction unbound values follow.
EXPERIMENT_NOTES: Unbound fraction in mouse plasma by equilibrium based LC-MS/MS analysis
Please respond with just the number, no unit label.

Solved entries:
> print(dat)
                                item.smiles  assay.value
1  Cc1nc(C)n(CC(=O)N2CCN(c3sc(C(F)(F)F)nc3-c3nc4ccccc4[nH]3)C[C@H]2C)n1        0.041
2  C[C@@H]1CN(c2sc(C(F)(F)F)nc2-c2nc3ccccc3[nH]2)CCN1C(=O)Cn1cccn1        0.026
3  Cc1nc(C)n(CC(=O)N2CCN(c3sc(C(F)(F)F)nc3-c3nc4c(F)cccc4[nH]3)C[C@H]2C)n1        0.014

Consider the record given below.
## Input Form field: reported fraction unbound of C[C@@H]1CN(c2sc(C(F)(F)F)nc2-c2nc3ccccc3[nH]2)CCN1C(=O)Cn1cnc2cccnc21
## Output 0.01

----------
Entries and their bioavailability values follow.
EXPERIMENT_NOTES: in vivo
COND: Wistar, rat, po, 2 mg/kg
Give just the number in %; leave the unit off.

Solved entries:
> print(dat)
                                item.smiles    quantity.name  assay.value
1  COc1cc2nc(-c3nc(C(F)(F)F)sc3N3CCN(C(=O)Cn4cnc5cccnc54)[C@H](C)C3)[nH]c2cc1OC  bioavailability           29
2  Cc1nc(C)n(CC(=O)N2CCN(c3sc(C(F)(F)F)nc3-c3nc4ccc(-c5noc(C)n5)cc4[nH]3)C[C@H]2C)n1  bioavailability          0.5

Consider the record given below.
## Input Form field: reported bioavailability of Cc1nc(C)n(CC(=O)N2CCN(c3sc(C(F)(F)F)nc3-c3nc4ccccc4[nH]3)C[C@H]2C)n1
## Output 0.5

----------
EXPERIMENT_NOTES: in vitro
COND: human, liver microsomes
QUANTITY_NAME: microsomal CLint at 0.25 h, 1 µM

## Input Form field: reported microsomal CLint at 0.25 h, 1 µM of Cc1nc(C)n(CC(=O)N2CCN(c3sc(C(F)(F)F)nc3-c3nc4ccc(-c5noc(C)n5)cc4[nH]3)C[C@H]2C)n1
## Output < 10 µL/min/mg
